Target: Aurora kinase A (AURKA) (Homo sapiens)
Construct: endogenous in cells; host or cells: HeLa LgBit (AURKA-HiBit KI), CRISPR/Cas9 knock-in at the endogenous AURKA locus
Sequence (O14965 1-403): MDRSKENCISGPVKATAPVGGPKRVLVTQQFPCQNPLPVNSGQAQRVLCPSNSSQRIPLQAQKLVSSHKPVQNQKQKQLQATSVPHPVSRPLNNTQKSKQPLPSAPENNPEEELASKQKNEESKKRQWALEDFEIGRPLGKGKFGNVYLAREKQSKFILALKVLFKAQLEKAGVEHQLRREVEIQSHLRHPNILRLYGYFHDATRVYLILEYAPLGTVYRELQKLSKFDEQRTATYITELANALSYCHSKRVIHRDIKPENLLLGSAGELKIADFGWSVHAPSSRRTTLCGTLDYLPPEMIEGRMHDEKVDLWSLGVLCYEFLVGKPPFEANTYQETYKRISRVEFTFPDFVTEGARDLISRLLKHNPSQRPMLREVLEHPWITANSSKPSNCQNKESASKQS
Assay: Luciferase assay for AURKA in HeLa LgBit (AURKA-HiBit KI) cell line
Format: cell-based
Conditions: 10 nM compound, HeLa LgBit (AURKA-HiBit KI) cells, measured after 12 hours
readout: luminescence value (Level)

O=C1CCC(c2ccc(N3CCN(CCC4CCN(NC(=O)c5ccc(Nc6ncc(F)c(Nc7ccc(C(=O)Nc8ccccc8Cl)cc7)n6)cc5)CC4)CC3)cc2F)C(=O)N1 (stereo not drawn)	A (A is <0.3)
O=C1CCC(c2ccc(N3CCC(CN4CC5(CC(NC(=O)c6ccc(Nc7ncc(F)c(Nc8ccc(C(=O)Nc9ccccc9Cl)cc8)n7)cc6)C5)C4)CC3)c(F)c2)C(=O)N1 (stereo not drawn)	A (A is <0.3)

====

Biological target: Aurora kinase A (AURKA) (Homo sapiens, UniProt O14965)
Construct: endogenous in cells; host or cells: HeLa LgBit (AURKA-HiBit KI), CRISPR/Cas9 knock-in at the endogenous AURKA locus
Sequence (O14965 1-403): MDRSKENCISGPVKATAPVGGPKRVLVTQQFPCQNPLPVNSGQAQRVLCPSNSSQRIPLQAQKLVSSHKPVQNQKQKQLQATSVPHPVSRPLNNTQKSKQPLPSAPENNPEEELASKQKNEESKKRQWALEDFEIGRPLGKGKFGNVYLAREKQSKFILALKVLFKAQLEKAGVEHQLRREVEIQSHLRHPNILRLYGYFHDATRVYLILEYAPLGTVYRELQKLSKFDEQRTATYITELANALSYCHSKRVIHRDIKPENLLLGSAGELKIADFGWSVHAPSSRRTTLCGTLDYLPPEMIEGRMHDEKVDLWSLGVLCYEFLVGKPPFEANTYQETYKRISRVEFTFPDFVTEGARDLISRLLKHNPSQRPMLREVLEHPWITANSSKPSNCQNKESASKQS
Assay: Luciferase assay for AURKA in HeLa LgBit (AURKA-HiBit KI) cell line
Type: cell-based
Settings: 10 nM compound, HeLa LgBit (AURKA-HiBit KI) cells, measured after 12 hours
readout: luminescence value (Level)

O=C1CCC(Nc2ccc(N3CCN(CC4CC45CCN(C(=O)c4ccc(Nc6ncc(F)c(Nc7ccc(C(=O)Nc8ccccc8Cl)cc7)n6)cc4)CC5)CC3)cc2)C(=O)N1 (stereo not drawn) [Compound 30]	B (B is 0.3 to 0.5)
O=C1CCC(c2ccc(N3CCC(CN4CC5(CCN(NC(=O)c6ccc(Nc7ncc(F)c(Nc8ccc(C(=O)Nc9ccccc9Cl)cc8)n7)cc6)CC5)C4)CC3)c(F)c2)C(=O)N1 (stereo not drawn) [Compound 97]	B (B is 0.3 to 0.5)

====

Biological target: Aurora kinase A (AURKA) (Homo sapiens)
Construct: endogenous in cells; host or cells: HeLa LgBit (AURKA-HiBit KI), CRISPR/Cas9 knock-in at the endogenous AURKA locus
Assay: Luciferase assay for AURKA in HeLa LgBit (AURKA-HiBit KI) cell line
Assay type: cell-based
Details: 10 nM compound, HeLa LgBit (AURKA-HiBit KI) cells, measured after 12 hours
readout: luminescence value (Level)

Worked examples follow.
O=C1CCC(Nc2ccc(N3CC4CN(CC5CN(C(=O)c6ccc(Nc7ncc(F)c(Nc8ccc(C(=O)Nc9ccccc9Cl)cc8)n7)cc6)C5)CC4C3)cc2)C(=O)N1 (centres unmarked) [Compound 34]	B (B is 0.3 to 0.5)
O=C1CCC(c2ccc(N3CC4(CCN(CC5CCN(NC(=O)c6ccc(Nc7ncc(F)c(Nc8ccc(C(=O)Nc9ccccc9Cl)cc8)n7)cc6)CC5)CC4)C3)c(F)c2)C(=O)N1 (centres unmarked) [Compound 78]	B (B is 0.3 to 0.5)
O=C1CCN(c2ccc(N3CCN(CCC4CCN(NC(=O)c5ccc(Nc6ncc(F)c(Nc7ccc(C(=O)Nc8ccccc8Cl)cc7)n6)cc5)CC4)CC3)cc2)C(=O)N1 [Compound 54]	B (B is 0.3 to 0.5)
O=C1CCC(c2ccc(N3CCN(CCC4CCN(NC(=O)c5ccc(Nc6ncc(F)c(Nc7ccc(C(=O)NC8CCCCC8)cc7)n6)cc5)CC4)CC3)cc2)C(=O)N1 (centres unmarked) [Compound 92]	B (B is 0.3 to 0.5)
O=C1CCC(c2ccc(N3CCN(CCC4CCN(NC(=O)c5ccc(Nc6ncc(F)c(Nc7ccc(C(=O)Nc8ccccc8Cl)cn7)n6)cc5)CC4)CC3)cc2)C(=O)N1 (centres unmarked) [Compound 98]	A (A is <0.3)

Entry under test: O=C1CC[C@H](NC(=O)c2ccc(N3CCN(CCC4CCN(NC(=O)c5ccc(Nc6ncc(F)c(Nc7ccc(C(=O)Nc8ccccc8Cl)cc7)n6)cc5)CC4)CC3)cn2)C(=O)N1 [Compound 87] . Its luminescence value (Level) was B (B is 0.3 to 0.5)

Entry under test: O=C1CCC(c2ccc(N3CCN(CCC4CCN(NC(=O)c5ccc(Nc6ncc(F)c(Nc7ccc(C(=O)Nc8ccccc8Cl)cc7)n6)cc5)CC4)CC3)cn2)C(=O)N1 (centres unmarked) [Compound 88] . Its luminescence value (Level) was A (A is <0.3)

Entry under test: CC(CN1CCN(c2ccc(C3CCC(=O)NC3=O)cc2)CC1)C1CCN(NC(=O)c2ccc(Nc3ncc(F)c(Nc4ccc(C(=O)Nc5ccccc5Cl)cc4)n3)cc2)CC1 (centres unmarked) [Compound 6] . Its luminescence value (Level) was B (B is 0.3 to 0.5)

Entry under test: O=C1CCC(Nc2ccc(N3CCN(C[C@@H]4[C@H]5CN(C(=O)c6ccc(Nc7ncc(F)c(Nc8ccc(C(=O)Nc9ccccc9Cl)cc8)n7)cc6)C[C@@H]45)CC3)cc2)C(=O)N1 (some centres unmarked) [Compound 37] . Its luminescence value (Level) was B (B is 0.3 to 0.5)

Entry under test: O=C1CC[C@@H](Nc2ccc(N3CCN(CCC4CCN(NC(=O)c5ccc(Nc6ncc(F)c(Nc7ccc(C(=O)Nc8ccccc8Cl)cc7)n6)cc5)CC4)CC3)cc2F)C(=O)N1 [Compound 111] . Its luminescence value (Level) was A (A is <0.3)

====

Biological target: Aurora kinase A (AURKA) (Homo sapiens)
Construct: endogenous in cells; host or cells: HeLa LgBit (AURKA-HiBit KI), CRISPR/Cas9 knock-in at the endogenous AURKA locus
Assay: Luciferase assay for AURKA in HeLa LgBit (AURKA-HiBit KI) cell line
Assay type: cell-based
Conditions: 10 nM compound, HeLa LgBit (AURKA-HiBit KI) cells, measured after 12 hours
readout: luminescence value (Level)

Worked examples follow.
O=C1CCC(Nc2ccc(N3CCN(CC[C@H]4CC[C@H](NC(=O)c5ccc(Nc6ncc(F)c(Nc7ccc(C(=O)Nc8ccccc8Cl)cc7)n6)cc5)CC4)CC3)c(F)c2)C(=O)N1 (some centres unmarked)	A (A is <0.3)
C[C@H]1CN(c2ccc(C3CCC(=O)NC3=O)cc2)CCN1CCC1CCN(NC(=O)c2ccc(Nc3ncc(F)c(Nc4ccc(C(=O)Nc5ccccc5Cl)cc4)n3)cc2)CC1 (some centres unmarked)	A (A is <0.3)
O=C1CCC(Nc2ccc(N3CCC(CN4CCC5(CCN(C(=O)c6ccc(Nc7ncc(F)c(Nc8ccc(C(=O)Nc9ccccc9Cl)cc8)n7)cc6)C5)C4)CC3)cc2)C(=O)N1 (centres unmarked)	B (B is 0.3 to 0.5)
O=C1CCC(c2ccc(N3CCN(CC(=O)N4CCC(NC(=O)c5ccc(Nc6ncc(F)c(Nc7ccc(C(=O)Nc8ccccc8Cl)cc7)n6)cc5)CC4)CC3)cc2)C(=O)N1 (centres unmarked)	B (B is 0.3 to 0.5)
O=C1CCC(c2ccc(N3CCC(O)(CCC4CCN(NC(=O)c5ccc(Nc6ncc(F)c(Nc7ccc(C(=O)Nc8ccccc8Cl)cc7)n6)cc5)CC4)CC3)c(F)c2)C(=O)N1 (centres unmarked)	A (A is <0.3)

Entry under test: O=C1CCC(c2ccc(N3CCN(CCC4CCN(NC(=O)c5ccc(Nc6ncc(F)c(Nc7ccc(NC(=O)c8ccccc8F)cc7)n6)cc5)CC4)CC3)cc2)C(=O)N1 (centres unmarked) . Its luminescence value (Level) was A (A is <0.3)

Entry under test: O=C1CCC(c2ccc(N3CCN(CCN4CC(NC(=O)c5ccc(Nc6ncc(F)c(Nc7ccc(C(=O)Nc8ccccc8Cl)cc7)n6)cc5)C4)CC3)cc2)C(=O)N1 (centres unmarked) . Its luminescence value (Level) was B (B is 0.3 to 0.5)

Entry under test: O=C1CCC(c2ccc(N3CCN(CCCN4CCC(NC(=O)c5ccc(Nc6ncc(F)c(Nc7ccc(C(=O)Nc8ccccc8Cl)cc7)n6)cc5)CC4)CC3)cc2)C(=O)N1 (centres unmarked) . Its luminescence value (Level) was A (A is <0.3)

Entry under test: O=C1CCC(Nc2ccc(N3CCC(CN4C[C@@H]5[C@H](C4)[C@H]5NC(=O)c4ccc(Nc5ncc(F)c(Nc6ccc(C(=O)Nc7ccccc7Cl)cc6)n5)cc4)CC3)cc2)C(=O)N1 (some centres unmarked) . Its luminescence value (Level) was B (B is 0.3 to 0.5)

Entry under test: O=C1CCC(Nc2ccc(N3CCN(CCN4CCC(NC(=O)c5ccc(Nc6ncc(F)c(Nc7ccc(C(=O)Nc8ccccc8Cl)cc7)n6)cc5)CC4)CC3)cc2)C(=O)N1 (centres unmarked) . Its luminescence value (Level) was A (A is <0.3)

Taken from patent US20260226071A1.
